B1: SPATS1 (parent)
chain: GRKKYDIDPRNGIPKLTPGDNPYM

# Variants of: B1
# experimentNotes: protein stability index of a GFP-peptide fusion (GPS, HEK-293T) (PSI 1-6); higher = more stable;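 further: lentivirally expressed fusions sorted by FACS into six bins by GFP to DsRed ratio, PSI derived from sequencing read proportions per bin multiplied by bin number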
# measurementContext: c terminus: a fixed tail appended
metricName: protein stability index
Lab note: record the figure alone, no unit after it.

Asked: Assign protein stability index to the following record: I13Q
Given back: 3.68

Asked: Assign protein stability index to the following record: P9H
Given back: 3.79

Asked: Assign protein stability index to the following record: K3V
Given back: 3.67

Asked: Assign protein stability index to the following record: I13K
Given back: 3.9

Asked: Assign protein stability index to the following record: L16K
Given back: 3.53

Asked: Assign protein stability index to the following record: M24Y
Given back: 3.73

Asked: Assign protein stability index to the following record: D8N
Given back: 3.12

Asked: Assign protein stability index to the following record: D20K
Given back: 3.74

Asked: Assign protein stability index to the following record: P18T
Given back: 3.85

Asked: Assign protein stability index to the following record: Y23M
Given back: 3.82

Asked: Assign protein stability index to the following record: P22Q
Given back: 3.98

Asked: Assign protein stability index to the following record: T17P
Given back: 3.23

Asked: Assign protein stability index to the following record: K4M
Given back: 3.5

Asked: Assign protein stability index to the following record: Y23E
Given back: 4.61

Asked: Assign protein stability index to the following record: N11F
Given back: 3.34

Asked: Assign protein stability index to the following record: G19Q
Given back: 3.35

Asked: Assign protein stability index to the following record: M24S
Given back: 4.21

Asked: Assign protein stability index to the following record: Y5Q
Given back: 4.27

Asked: Assign protein stability index to the following record: Y5E
Given back: 4.86

Asked: Assign protein stability index to the following record: R10Q
Given back: 4.14

Asked: Assign protein stability index to the following record: G1H
Given back: 3.25

Asked: Assign protein stability index to the following record: D6I
Given back: 2.57

Asked: Assign protein stability index to the following record: R2L
Given back: 3.12

Asked: Assign protein stability index to the following record: N11Y
Given back: 4.13

Asked: Assign protein stability index to the following record: Y5T
Given back: 4.11

Asked: Assign protein stability index to the following record: N21K
Given back: 3.51

Asked: Assign protein stability index to the following record: P9A
Given back: 3.44

Asked: Assign protein stability index to the following record: R2M
Given back: 3.37

Asked: Assign protein stability index to the following record: K4A
Given back: 3.38

Asked: Assign protein stability index to the following record: G1D
Given back: 3.85

Asked: Assign protein stability index to the following record: R10Y
Given back: 3.1

Asked: Assign protein stability index to the following record: P14A
Given back: 3.52

Asked: Assign protein stability index to the following record: Y5I
Given back: 3.4

Asked: Assign protein stability index to the following record: I13N
Given back: 4.1

Asked: Assign protein stability index to the following record: Y5W
Given back: 2.92

Asked: Assign protein stability index to the following record: P18V
Given back: 3.34

Asked: Assign protein stability index to the following record: P18G
Given back: 2.98

Asked: Assign protein stability index to the following record: P14L
Given back: 2.94

Asked: Assign protein stability index to the following record: P9F
Given back: 2.8

Asked: Assign protein stability index to the following record: P14T
Given back: 3.27

Asked: Assign protein stability index to the following record: P9R
Given back: 3.74

Asked: Assign protein stability index to the following record: P14M
Given back: 3.05

Asked: Assign protein stability index to the following record: K4T
Given back: 3.48

Asked: Assign protein stability index to the following record: D8T
Given back: 3.56

Asked: Assign protein stability index to the following record: I7Q
Given back: 4.17

Asked: Assign protein stability index to the following record: G1I
Given back: 2.66
